Sourced from ChEMBL document CHEMBL3988442

# System: Wolbachia pipientis
# protocol_summary: Anti-Wolbachia Cell-Based Screen
# Assay type: functional
# Design: scale not given: in the data most compounds retested in dose-response had high values
# condition: 5 µM
About 13,000 (27%) of roughly 48,000 compounds showed an effect of 50% or more. This is one part of the list.
measurement_name: Percent Effect (%)
Value expressed in %; do not type the unit.

>>> experimental_value("Cn1cccc1CNCc1nnc2n1CCCC2C(F)(F)F (stereo unspecified)")
-16.29
>>> experimental_value("O=C(CN1CCOC(Cn2cccn2)C1)NC1CCN(C2CC2)CC1 (stereo unspecified)")
-5.348
>>> experimental_value("c1cnnc(NCC2CN(CCN3CCCCC3)CCO2)c1 (stereo unspecified)")
-1.688
>>> experimental_value("O=S(=O)(C1CC1)N1CC[C@]2(C[C@H](OCC3CCOCC3)CO2)C1")
2.042
>>> experimental_value("CC(C)c1cc(C(=O)N(C)C(C)c2nccs2)no1 (stereo unspecified)")
-2.417

Now take the following compound into account.
Enquiry: Fill blank: measured Percent Effect of the compound OC1(CN2CCOC(CNc3cccnn3)C2)CCCCC1 (stereo unspecified) is ____.
Return: 90.58

----------
Consider the following compounds and their measured Percent Effect readings.
# System: Wolbachia pipientis
# protocol_summary: Anti-Wolbachia Cell-Based Screen
# Assay type: functional
# Parameters: scale not given: in the data most compounds retested in dose-response had high values
# condition: 5 µM
The whole screen tested about 48,000 compounds, of which about 13,000 (27%) showed an effect of 50% or more. This is one part of the list.
Value expressed in %; do not type the unit.

>>> experimental_value("CCn1ccnc1CN1CCCC(CO)(Cc2cccc(Cl)c2)C1 (stereo not drawn)")
-3.247

Enquiry: Fill blank: measured Percent Effect of the compound FC(F)(F)COCCN1CCCC(c2noc(C3CC3)n2)C1 (stereo not drawn) is ____.
Return: 7.435

Enquiry: Fill blank: measured Percent Effect of the compound Cc1noc(C2CN(Cc3ccc4c(c3)CCO4)C2)n1.O=C(O)C(=O)O is ____.
Return: 22.63

Enquiry: Fill blank: measured Percent Effect of the compound Cc1nc(C2CCCN2C(=O)CN(C)Cc2ccccc2)no1 (stereo not drawn) is ____.
Return: 10.99

Enquiry: Fill blank: measured Percent Effect of the compound CNC(=O)C(c1cccc(Cl)c1)C(C)C (stereo not drawn) is ____.
Return: -9.115

Enquiry: Fill blank: measured Percent Effect of the compound CN(CC(=O)N1CCCC1c1noc(C2CC2)n1)Cc1ccccc1 (stereo not drawn) is ____.
Return: 125

Enquiry: Fill blank: measured Percent Effect of the compound N#Cc1ccc(NCCCN2C(=O)COc3ccccc32)nc1 is ____.
Return: -5.647

Enquiry: Fill blank: measured Percent Effect of the compound Cn1cc(CN2CCCC(CCc3ccc(F)cc3F)C2)cn1 (stereo not drawn) is ____.
Return: 13.59

Enquiry: Fill blank: measured Percent Effect of the compound O=C(c1cc(Cl)ccc1OC1CCN(C2CCCC2)CC1)N1CC(O)C1 is ____.
Return: 4.812

Enquiry: Fill blank: measured Percent Effect of the compound Oc1cccc(CNC2CCN(CCc3ccncc3)CC2)c1 is ____.
Return: -20.44

Enquiry: Fill blank: measured Percent Effect of the compound Cc1cccnc1CSCCCNS(C)(=O)=O is ____.
Return: -17.43

Enquiry: Fill blank: measured Percent Effect of the compound CN(Cc1ccccc1)C(=O)CN1CCCC1c1cnn(C)c1 (stereo not drawn) is ____.
Return: -36.94

Enquiry: Fill blank: measured Percent Effect of the compound C=C(C)CN(CC)C(=O)c1cc(Cl)ccc1NS(C)(=O)=O is ____.
Return: -12.97

Enquiry: Fill blank: measured Percent Effect of the compound CN(CC(=O)N1CCCC1c1noc(C2CC2)n1)S(C)(=O)=O (stereo not drawn) is ____.
Return: -4.579

Enquiry: Fill blank: measured Percent Effect of the compound COCc1cccc(CNC(=O)CN2CCCC2c2noc(C)n2)c1 (stereo not drawn) is ____.
Return: -0.5396

Enquiry: Fill blank: measured Percent Effect of the compound CC(=O)NC1CCc2ccc(S(=O)(=O)NCc3ncccc3C)cc21 (stereo not drawn) is ____.
Return: 37.01

Enquiry: Fill blank: measured Percent Effect of the compound CC(=O)N1CC(=O)N(c2cnn(C)c2)CC12CCN(CC1CC1)C2.O=C(O)C(F)(F)F (stereo not drawn) is ____.
Return: -1.209

Enquiry: Fill blank: measured Percent Effect of the compound O=C(CSc1ccc2c(c1)OCCO2)NS(=O)(=O)c1cccs1 is ____.
Return: 5.144

Enquiry: Fill blank: measured Percent Effect of the compound O=S(=O)(NCC1(O)CCOc2ccccc21)c1cccs1 (stereo not drawn) is ____.
Return: -3.854

Enquiry: Fill blank: measured Percent Effect of the compound Cc1ccc(C(=O)N2CCCC(C(=O)N3CCCCC3)C2)c(O)c1 (stereo not drawn) is ____.
Return: -5.568

Enquiry: Fill blank: measured Percent Effect of the compound CCOc1ccccc1C(=O)N1CC(=O)N(C2CCC2)CC(O)C1 (stereo not drawn) is ____.
Return: 90.13

----------
# System: Wolbachia pipientis
# protocol_summary: Anti-Wolbachia Cell-Based Screen
# Type: functional
# Set-up: scale not given: in the data most compounds retested in dose-response had high values
# condition: 5 µM
In all, about 48,000 compounds went through this assay and about 13,000 (27%) showed an effect of 50% or more. The list shows a part of the results.
Consider the following compounds and their measured Percent Effect readings.
Value expressed in %; do not type the unit.

>>> experimental_value("O=C(CC1CC1)N1CCN(Cc2cccnc2)c2ncccc2C1.O=C(O)C(F)(F)F.O=C(O)C(F)(F)F")
108.8
>>> experimental_value("Cc1cc(C)n(CC(C)NC2CCN(Cc3cccc(O)c3)CC2)n1 (configuration not stated)")
-0.5082
>>> experimental_value("COCC(=O)N1CCN(Cc2cccnc2)c2ncccc2C1.O=C(O)C(F)(F)F.O=C(O)C(F)(F)F")
107.3
>>> experimental_value("COCCN(Cc1ccc(C)o1)C(=O)Nc1ncc(C)s1")
4.146
>>> experimental_value("O=C(Cc1cccs1)NC1(C(=O)NCC2CC2)CCCC1")
4.522
>>> experimental_value("CN(Cc1cc(-c2ccncc2)no1)C(=O)[C@@H]1CSCN1C")
2.417
>>> experimental_value("O=C(C1CC1)N1CCN(Cc2ccncc2)c2ncccc2C1.O=C(O)C(F)(F)F.O=C(O)C(F)(F)F")
97.41
>>> experimental_value("CCC(CC)(CC(=O)OC)NC(=O)Nc1nnc(-c2ccccn2)s1")
-2.114

Enquiry: Fill blank: measured Percent Effect of the compound Cc1nccn1-c1cccc(C2CCCN(C3CCCCC3)C2)n1 (configuration not stated) is ____.
Return: -27.27

Enquiry: Fill blank: measured Percent Effect of the compound COCCNc1nc2c(c(NCc3cnc(C)cn3)n1)CCNCC2 is ____.
Return: -9.122

Enquiry: Fill blank: measured Percent Effect of the compound CN1C[C@H](O)C[C@H]1c1nc(-c2ccc(OC(F)(F)F)cc2)no1 is ____.
Return: -6.164

Enquiry: Fill blank: measured Percent Effect of the compound CC(C)[C@H]1CN(CCS(C)(=O)=O)C[C@@H]1NC(=O)c1ccc(=O)[nH]c1 is ____.
Return: -6.33

Enquiry: Fill blank: measured Percent Effect of the compound CCS(=O)(=O)NCC1OCCc2cn(CC3CCOCC3)nc21 (configuration not stated) is ____.
Return: -7.17

Enquiry: Fill blank: measured Percent Effect of the compound CCC(C)(C)NC(=O)Nc1nnc(-c2ccccn2)s1 is ____.
Return: -10.26

Enquiry: Fill blank: measured Percent Effect of the compound Cc1nccn1-c1cccc(C2CCCN(C(=O)c3cc[nH]n3)C2)n1 (configuration not stated) is ____.
Return: 5.97

Enquiry: Fill blank: measured Percent Effect of the compound COCCNc1nnc(-c2cnc(C)cn2)s1 is ____.
Return: 149.1

Enquiry: Fill blank: measured Percent Effect of the compound Cc1cccc(O[C@H]2COCCN(C3CCOCC3)C2)n1 is ____.
Return: -0.8542

Enquiry: Fill blank: measured Percent Effect of the compound O=C(CC1CC1)N1CCN(Cc2ccncc2)c2ncccc2C1.O=C(O)C(F)(F)F.O=C(O)C(F)(F)F is ____.
Return: 106.6

Enquiry: Fill blank: measured Percent Effect of the compound Cc1nccn1-c1cccc(C2CCCN(C3CCCC3)C2)n1 (configuration not stated) is ____.
Return: 98.22

Enquiry: Fill blank: measured Percent Effect of the compound O=C(O)C(F)(F)F.O=C(O)CCC(=O)N1CCN(CC2CC2)c2ncccc2C1 is ____.
Return: -20.91

Enquiry: Fill blank: measured Percent Effect of the compound CCOc1ccc(NC(=O)c2scnc2CC)cc1CO is ____.
Return: -2.962

Enquiry: Fill blank: measured Percent Effect of the compound COCCNc1nnc(-c2ccc(C)nc2)s1 is ____.
Return: 135.2
